Reference for the values: patent US20040115622A1

target-system: HLA-DR molecule encoded by the allele DRB1*1101 (human)
assay-comment: competition ELISA vs biotinylated HA 306-318
Condition met if IC50 is below 200 nM. Condition not met if not; exact matches included in Condition not met.

Consider the following illustrative entries.
WCYKLVPVEPDKVEE (modifications not checked) [Nef10.3 peptide (positions 141-155 of the HIV-1 Nef protein, Bru strain), P03406 141-155] :: Condition not met
DPEREVLEWRFDSRLA (modifications not checked) [Nef12 peptide (positions 175-190 of the HIV-1 Nef protein, Bru strain), P03406 175-190] :: Condition met
EANKGENTSLLHPVSLHGMDDPEREVLEWRF (modifications not checked) [Nef11 peptide (positions 155-185 of the HIV-1 Nef protein, Bru strain), P03406 155-185] :: Condition not met
SRLAFHHVARELHPE (modifications not checked) [Nef13.4 peptide (positions 187-201 of the HIV-1 Nef protein, Bru strain), P03406 187-201] :: Condition met
FGWCYKLVPVEPDKV (modifications not checked) [Nef10.2 peptide (positions 139-153 of the HIV-1 Nef protein, Bru strain), P03406 139-153] :: Condition not met

Exercise: Here's an entry: LTFGWCYKLVPVEPD (modifications not checked) [Nef10.1 peptide (positions 137-151 of the HIV-1 Nef protein, Bru strain), P03406 137-151] . Is its IC50 below 200 nM?
Solution: Condition met

Exercise: Item AAVDLSHFLKEKGGL (modifications not checked) [Nef4.7 peptide (positions 83-97 of the HIV-1 Nef protein, Bru strain), P03406 83-97] : IC50 beneath 200 nM, strictly?
Solution: Condition not met

Exercise: Field: below-cutoff. Rule: recorded IC50 strictly less than 200 nM. Subject: WRFDSRLAFHHVARE (modifications not checked) [Nef13.3 peptide (positions 183-197 of the HIV-1 Nef protein, Bru strain), P03406 183-197]
Solution: Condition met
